Target: His6-CRBN/DDB1 (Homo sapiens, UniProt Q96SW2)
Sequence (Q96SW2 whole entry): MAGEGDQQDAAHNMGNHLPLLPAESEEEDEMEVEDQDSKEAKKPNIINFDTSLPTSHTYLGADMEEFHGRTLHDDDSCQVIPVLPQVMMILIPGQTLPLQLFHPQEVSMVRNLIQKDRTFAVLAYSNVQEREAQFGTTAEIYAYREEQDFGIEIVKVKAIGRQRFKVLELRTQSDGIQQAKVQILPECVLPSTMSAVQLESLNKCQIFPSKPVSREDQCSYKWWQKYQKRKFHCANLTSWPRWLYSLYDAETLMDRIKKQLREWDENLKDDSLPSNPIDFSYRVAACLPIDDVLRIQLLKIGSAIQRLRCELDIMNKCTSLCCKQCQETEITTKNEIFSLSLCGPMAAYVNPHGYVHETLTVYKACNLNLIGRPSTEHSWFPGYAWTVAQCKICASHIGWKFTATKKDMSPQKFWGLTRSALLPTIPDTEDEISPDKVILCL
Sequence (Q16531 whole entry partner): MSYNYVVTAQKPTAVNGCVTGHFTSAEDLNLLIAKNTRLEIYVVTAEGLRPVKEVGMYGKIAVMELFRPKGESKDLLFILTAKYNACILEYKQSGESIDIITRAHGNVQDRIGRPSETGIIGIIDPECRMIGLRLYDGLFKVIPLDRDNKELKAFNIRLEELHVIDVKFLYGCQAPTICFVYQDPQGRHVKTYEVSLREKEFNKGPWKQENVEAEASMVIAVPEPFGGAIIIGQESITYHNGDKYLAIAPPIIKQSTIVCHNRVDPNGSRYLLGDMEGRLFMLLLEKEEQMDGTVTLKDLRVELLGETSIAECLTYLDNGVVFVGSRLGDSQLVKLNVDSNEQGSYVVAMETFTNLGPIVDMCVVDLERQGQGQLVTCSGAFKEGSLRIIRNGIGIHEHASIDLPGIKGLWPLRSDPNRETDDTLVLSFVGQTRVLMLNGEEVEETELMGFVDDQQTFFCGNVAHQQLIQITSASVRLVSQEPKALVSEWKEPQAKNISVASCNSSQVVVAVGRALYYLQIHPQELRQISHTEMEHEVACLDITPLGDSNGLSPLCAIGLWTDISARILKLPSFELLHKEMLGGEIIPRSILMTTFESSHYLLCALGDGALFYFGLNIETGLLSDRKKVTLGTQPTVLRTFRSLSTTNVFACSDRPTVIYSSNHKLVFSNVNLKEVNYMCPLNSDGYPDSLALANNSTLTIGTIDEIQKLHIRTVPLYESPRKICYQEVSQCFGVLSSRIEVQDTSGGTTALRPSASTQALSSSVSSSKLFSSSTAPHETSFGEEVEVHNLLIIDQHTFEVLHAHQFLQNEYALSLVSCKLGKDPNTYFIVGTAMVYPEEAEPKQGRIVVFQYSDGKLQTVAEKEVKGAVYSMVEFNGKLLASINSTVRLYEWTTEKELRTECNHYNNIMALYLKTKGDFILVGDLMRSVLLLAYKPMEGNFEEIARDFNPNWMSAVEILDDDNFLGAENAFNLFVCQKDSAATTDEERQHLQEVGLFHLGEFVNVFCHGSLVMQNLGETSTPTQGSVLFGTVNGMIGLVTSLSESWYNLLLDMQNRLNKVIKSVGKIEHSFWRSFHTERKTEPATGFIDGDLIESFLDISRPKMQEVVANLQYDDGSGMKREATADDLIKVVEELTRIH
Experiment: TR-FRET ligand displacement assay (Thal-FITC tracer) with His6-CRBN/DDB1
Details: KD (nM), Protein CRBN; from IC50 with Correction Factor 1.43
Residues, ends and D or L forms follow the SMILES beside them. *: point of attachment. Aspartimide = O=C1C[C@H](N*)C(=O)N1
OUTCOME MEASURE: Kd (nM)
Give a bare numeral; the unit nM is implied.

Q: Sample C[C@H](NC(=O)CNC(=O)CNC(=O)CN)C(=O)N[C@H]1CC(=O)NC1=O [GGGAcN] (H-GGGA-Aspartimide) — what was its Kd?
Result: 242

Q: Check CN1C(=O)CCC(N2Cc3c(N)cccc3C2=O)C1=O (centres unmarked) [Me-Len, reference compound] too.
Result: 10700

Value source: paper PMC12117711
